The origin of these recorded values is patent US10227345B2.

study-system: human fascin 1 (Homo sapiens)
Construct: GST (N, cleaved yes); made in house; host or cells: Escherichia coli BL21/DE3 (pGEX4T-fascin 1 plasmid)
assay-method-text: Fascin inhibition (actin bundling) assay, image-based
Assay type: biochemical
condition-parameters: in the presence of 50 μm of the compound relative to bundle activity when the compound was not present; read-out: Inhibition (percentage reduction of bundle activity)
metric: inhibition at 50 µM

These recorded examples may help you get a feel for the data.
For FC(F)(F)c1ccc(CNc2nn(Cc3ccc(C(F)(F)F)cc3)c3ccccc23)cc1 , what is its reported inhibition at 50 µM? < 10%

Need inhibition at 50 µM, item N#Cc1ccc2c(c1)c(NC(=O)c1cccnn1)nn2Cc1ccc(C(F)(F)F)nc1 < 10%

Need inhibition at 50 µM, item O=C(Nc1nn(Cc2ccccc2C(F)(F)F)c2ccccc12)c1ccoc1 < 10%

Need inhibition at 50 µM of Cc1ncoc1C(=O)Nc1nn(Cc2ccc(C(F)(F)F)cc2)c2ccccc12 , thanks. 80%

Entry under review: O=C(Nc1nn(Cc2ccc(C(F)(F)F)cc2)c2ccccc12)c1cc2ccccc2o1 . Reported inhibition at 50 µM? < 10%

Others:
I have this molecule here, O=C(Nc1nn(Cc2ccc(C(F)(F)F)cc2)c2ccccc12)c1ccc(F)cc1 , and I need its recorded inhibition at 50 µM. < 10%

Item under review: O=C(Nc1nn(Cc2ccc(F)cc2)c2ccccc12)c1cccnn1 . Reported inhibition at 50 µM? < 10%

I am curious: what inhibition at 50 µM value has been reported for Cc1ccc(Cn2nc(NC(=O)c3scnc3C)c3ccccc32)cc1 ? < 10%

Need inhibition at 50 µM, item O=C(Nc1nn(Cc2ccc(C(F)(F)F)cc2)c2ccccc12)c1ccc(F)c(F)c1 < 10%

Endpoint output: inhibition at 50 µM of Cc1ccsc1C(=O)Nc1nn(Cc2ccc(C(F)(F)F)cc2)c2ccccc12 . Value? < 10%

Tell me the measured inhibition at 50 µM of O=C(Nc1nn(Cc2ccc(C(F)(F)F)cc2)c2ccccc12)c1cccc(Cl)c1 , please. 10%

Value lookup for inhibition at 50 µM; key = O=C(Nc1nn(Cc2ccc(C(F)(F)F)cc2)c2ccccc12)c1csc(Cl)n1 < 10%

Item under review: N#Cc1ccc(Cn2nc(NC(=O)c3ccno3)c3ccccc32)cc1 . Reported inhibition at 50 µM? < 10%

What measured inhibition at 50 µM goes with O=C(Nc1nn(Cc2ccc(C(F)(F)F)cc2)c2ccccc12)c1ccccc1OC(F)F ? < 10%

inhibition at 50 µM lookup needed for FC(F)(F)c1ccc(Cn2nc(Br)c3ccccc32)cc1 , thanks. 10%

What value of inhibition at 50 µM has been recorded for this entry: O=C(Nc1nn(Cc2ccc(C(F)(F)F)cc2)c2cccc(Cl)c12)c1ccoc1 < 10%

What does the record list as inhibition at 50 µM for CNc1nn(Cc2ccc(C(F)(F)F)cc2)c2cncc(Cl)c12 ? 10%

Can you share its inhibition at 50 µM? I mean this molecule: N#Cc1ccc2c(c1)c(N)nn2Cc1ccc(C(F)(F)F)nc1 < 10%

---

study-system: human fascin 1 (Homo sapiens)
Construct: GST (N, cleaved yes); made in house; host or cells: Escherichia coli BL21/DE3 (pGEX4T-fascin 1 plasmid)
assay-method-text: Fascin inhibition (actin bundling) assay, image-based
Assay type: biochemical
condition-parameters: in the presence of 50 μm of the compound relative to bundle activity when the compound was not present; read-out: Inhibition (percentage reduction of bundle activity)
The entries below come with measured inhibition at 50 µM values attached.

Solved cases (5 shown):
Using the record for Cc1occc1C(=O)Nc1nn(Cc2ccc(F)cc2)c2ccccc12 [Compound 74] , report its inhibition at 50 µM. < 10%

// inhibition at 50 µM lookup, key: O=C(Nc1nn(Cc2ccc(C(F)(F)F)cc2)c2ccccc12)c1ccccc1C(F)(F)F [Compound 50] < 10%

Could you share which inhibition at 50 µM value was measured for Nc1nn(Cc2ccc(CO)cc2)c2ccccc12 [Compound 103] ? < 10%

Form field: reported inhibition at 50 µM of O=C(Nc1nn(Cc2ccc(C(F)(F)F)cc2)c2ccccc12)c1cccc(F)c1 [Compound 14] < 10%

I have this molecule here, Cc1ncsc1C(=O)Nc1nn(Cc2ccc(C(F)(F)F)nc2)c2ccc(C#N)cc12 [Compound 101] , and I need its recorded inhibition at 50 µM. < 10%

New cases:
Any idea what its inhibition at 50 µM is? The molecule is O=C(Nc1nn(Cc2ccc(C(F)(F)F)cc2)c2ccccc12)c1cccs1 [Compound 9] 60%

Item under review: CCC(=O)Nc1nn(Cc2ccc(C(F)(F)F)cc2)c2cncc(Cl)c12 [Compound 151] . Reported inhibition at 50 µM? 80%

Value lookup for inhibition at 50 µM; key = O=C(Nc1nn(Cc2cccc(C(F)(F)F)c2)c2ccccc12)c1ccoc1 [Compound 48] < 10%

Sample O=C(Nc1nn(Cc2ccc(Cl)cc2)c2ccccc12)c1ccno1 [Compound 66] — what was its inhibition at 50 µM? 100%
